test_protocol: qHTS RealTime-Glo MT Cell Viability Assay in HEK293 cells - 40 hour (AID 1224874); also: % is scaled to controls: 0 for no effect and ±100 for the full control effect; nearly all actives have a fitted effect of over 50% in size
run_parameters: RealTime-Glo luminescence; hits give low values
Inconclusive results are not listed.
reported_metric: max response (%)
Hi! Could you send only the number? It should be in %, unit omitted.

Solved entries:
C/C=C/C(=O)C1=C(C)C=CCC1(C)C | 1.31
O=C(O)CN(CCCN(CC(=O)O)CC(=O)O)CC(=O)O | -7.68

Using known records, supply max response for `C=Cc1ccncc1` -1.15

Using known records, supply max response for `Nc1cc([N+](=O)[O-])cc(Cl)c1O` -6.05

Using known records, supply max response for `Cc1cc(C)c(O)c(C(C)(C)C)c1` -8.82

====

test_protocol: A CellTox Green Cytotoxicity Assay to monitor cytotoxicity in HepG2 cells - 40 hour (AID 1224879); also: nearly all actives have a fitted effect of over 40% in size
run_parameters: CellTox Green fluorescence; series mostly up to 76.8 µM
Records with an inconclusive call do not appear. The source made the active and inactive calls. The call rests on the fitted dose curve; in most records, active means well fitted activation curve with a large enough effect in the repeat runs; inconclusive means weak or mixed curves; inactive means flat fitted curve, though single readings scatter.
Respond with a class label; see 1.0 (active), 0.0 (inactive)

These solved cases illustrate the format of a correct answer.
CN1CCN(CCCN2c3ccccc3Sc3ccc(Cl)cc32)CC1 | 1.0
Nc1ccc(Oc2cccc(Oc3ccc(N)cc3)c2)cc1 | 0.0
CN1CCN(CCCN2c3ccccc3Sc3ccc(C(F)(F)F)cc32)CC1 | 1.0
CCOc1nc(F)cc2nc(S(=O)(=O)Nc3c(Cl)cccc3C(=O)OC)nn12 | 0.0

Each compound tested received a call. Report the one for `Oc1ccc(Cl)cc1C1CCCC1` . 1.0

Each compound tested received a call. Report the one for `Cc1ccc(C=O)cc1` . 0.0

Each compound tested received a call. Report the one for `C=C(C)CCO` . 0.0

Each compound tested received a call. Report the one for `Oc1ccc(C2(c3ccc(O)c(C4CCCCC4)c3)CCCCC2)cc1C1CCCCC1` . 1.0

Each compound tested received a call. Report the one for `CCCC(=O)c1cc(O)c(O)cc1O` . 0.0

====

test_protocol: qHTS assay to test for compound auto fluorescence at 590 nm (red) in HEK293 cell free culture (AID 720683); also: % is scaled to controls: 0 for no effect and ±100 for the full control effect
run_parameters: cell-free medium autofluorescence, Ex540/Em590 red; series mostly up to 46 µM
Active and inactive are the calls of the source. The call rests on the fitted dose curve; in most records, active means well fitted curve in the direction sought with a large enough effect in the repeat runs; inconclusive means weak or mixed curves; inactive means flat fitted curve, though single readings scatter.
reported_metric: outcome

Cc1cc(F)ccc1-c1cc(N2CC[C@@H](O)[C@H]2CO)ncc1N(C)C(=O)C(C)(C)c1cc(C(F)(F)F)cc(C(F)(F)F)c1 | inactive
CC[C@@]1([C@@H]2O[C@@H]([C@H]3O[C@@](O)(CO)[C@H](C)C[C@@H]3C)C[C@@H]2C)CC[C@H]([C@]2(C)CC[C@]3(C[C@H](O)[C@@H](C)[C@@H]([C@@H](C)[C@@H](OC)[C@H](C)C(=O)O)O3)O2)O1 (stereo in doubt) | inactive
O=C1C2CC3CC1CC(O)(C3)C2 | inactive

====

test_protocol: qHTS RealTime-Glo MT Cell Viability Assay in HepG2 cells - 8 hour (AID 1224873); also: nearly all actives have a fitted effect of over 55% in size
run_parameters: RealTime-Glo luminescence; series mostly up to 76.8 µM
Inconclusive results are not listed. Calls of active or inactive are those of the source. The call rests on the fitted dose curve; in most records, active means well fitted cell-killing curve with a large enough effect in the repeat runs; inconclusive means weak or mixed curves; inactive means flat fitted curve, though single readings scatter.
Respond with a class label; see active, inactive

C/C=C/C(=O)OCC(C)C | inactive
CCCCCCCCc1ccc(Nc2ccc(CCCCCCCC)cc2)cc1 | inactive
CCCCCCCCCCCCCCCCC(C(=O)O)C(O)(CC(=O)O)C(=O)O (centres undefined) | inactive

Each compound tested received a call. Report the one for `C=COCCCC` . inactive

Each compound tested received a call. Report the one for `Clc1cccc(Cl)n1` . inactive

Each compound tested received a call. Report the one for `Nc1cc([N+](=O)[O-])cc(Cl)c1O` . inactive

Each compound tested received a call. Report the one for `NCc1cccc(C2CCN(C(=O)c3ccc(C#Cc4ccccc4F)o3)CC2)c1` . active

Each compound tested received a call. Report the one for `Cc1cccc(C)c1C` . inactive

Each compound tested received a call. Report the one for `C=Cc1ccncc1` . inactive

Each compound tested received a call. Report the one for CC(Cc1ccc(O)c(O)c1)C(C)Cc1ccc(O)c(O)c1 (centres undefined) . active

Each compound tested received a call. Report the one for `CSc1ccc(O)cc1C` . inactive

Each compound tested received a call. Report the one for `CN1CCN(c2ccccc2/C=C2\SCCN(c3ccc(Cl)c(Cl)c3)C2=O)CC1` . active

Each compound tested received a call. Report the one for `CC1(C)[C@H]2CC[C@]1(C)C(=O)C2` . inactive

Each compound tested received a call. Report the one for `O=c1[nH]cccc1O` . inactive

Each compound tested received a call. Report the one for `CCCCCc1ccc(O)cc1` . inactive

Each compound tested received a call. Report the one for `C/C(=C\c1ccc(C(=O)O)cc1)c1ccc2c(c1)C(C)(C)CCC2(C)C` . inactive

Each compound tested received a call. Report the one for `O=C1OCc2ccccc21` . inactive

Each compound tested received a call. Report the one for `C[C@H]1O[C@@H](O[C@H]2CC[C@@]3(C)[C@H](CC[C@@H]4[C@@H]3C[C@@H](O)[C@]3(C)[C@@H](C5=CC(=O)OC5)CC[C@]43O)C2)C[C@H](O)[C@@H]1O[C@H]1C[C@H](O)[C@H](O[C@H]2C[C@H](O)[C@H](O[C@@H]3O[C@H](CO)[C@@H](O)[C@H](O)[C@H]3O)[C@@H](C)O2)[C@@H](C)O1` . inactive

Each compound tested received a call. Report the one for `C1CCSC1` . inactive

Each compound tested received a call. Report the one for `C=CC(C)(C)O` . inactive

Each compound tested received a call. Report the one for `C=C1CC[C@H]2O[C@]2(C)CC[C@@H]2[C@@H]1CC2(C)C` . inactive

Each compound tested received a call. Report the one for `COc1c(Br)cc(Br)c(C)c1Br` . inactive

Each compound tested received a call. Report the one for `CCNc1nc(NC(C)(C)C)nc(OC)n1` . inactive

Each compound tested received a call. Report the one for `CN(C[C@@H](CC[N+]12CCC(C3CCCCC3)(CC1)CC2)c1ccc(Cl)c(Cl)c1)C(=O)c1cc(C(F)(F)F)cc(C(F)(F)F)c1` . active

Each compound tested received a call. Report the one for Cc1ccc(C2OC[C@@H]3OC(c4ccc(C)cc4)O[C@H]([C@H](O)CO)[C@@H]3O2)cc1 (some centres undefined) . inactive

====

test_protocol: qHTS assay to identify small molecule antagonists of the estrogen related receptor signaling pathway with the pleiotropic PPARgamma coactivator (PGC) cell viability counter screen (AID 1224822;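 also: viability read after 17.5 h compound exposure; % is scaled to controls: 0 for no effect and ±100 for the full control effect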)
run_parameters: ERR/PGC reporter cell line viability counter screen; series mostly up to 46.1 µM
Inconclusive results are not listed. Activity calls are given as the source filed them. Calls follow the shape of the dose curve; as a rule, active = well fitted cell-killing curve with a large enough effect in the repeat runs; inconclusive = weak or mixed curves, or effect the other way; inactive = flat fitted curve, though single readings scatter.
Respond with a class label; see TRUE = active, FALSE = inactive

Each molecule tested received a call. Report the one for `CC(C)COC(=O)OCN1C(=O)CN(CCN2CC(=O)N(COC(=O)OCC(C)C)C(=O)C2)CC1=O` . FALSE

Each molecule tested received a call. Report the one for `COC(=O)c1c(C)[nH]c(C)c1C(=O)c1ccccc1Cc1ccccc1` . FALSE

Each molecule tested received a call. Report the one for `NC(N)=N[C@@H](CCC(=O)O)C(=O)O` . FALSE

====

test_protocol: qHTS assay to identify small molecule antagonists of the thyroid receptor (TR) signaling pathway (AID 743065); also: nearly all actives have a fitted effect of over 55% in size
run_parameters: GH3.TRE-Luc, T3-stimulated luciferase inhibition, 23.5 h; series mostly up to 70.3 µM
Inconclusive results are not listed. Active and inactive are the calls of the source. Calls follow the shape of the dose curve; as a rule, active = well fitted inhibition curve with a large enough effect in the repeat runs; inconclusive = weak or mixed curves; inactive = no such curve, though single readings can be large or run the other way.
Respond with a class label; see class 1 (active), class 0 (inactive)

CN1CC[C@H](c2c(O)cc(O)c3c(=O)cc(-c4ccccc4Cl)oc23)[C@H](O)C1 | class 1

Each molecule tested received a call. Report the one for `CC1=C(/C=C/C(C)=C/C=C/C(C)=C/C=C/C=C(C)/C=C/C=C(C)/C=C/C2=C(C)CCCC2(C)C)C(C)(C)CCC1` . class 0

Each molecule tested received a call. Report the one for `C[N+](C)(C)CCOP(=O)(O)OP(=O)([O-])OC[C@H]1O[C@@H](n2ccc(N)nc2=O)[C@H](O)[C@@H]1O` . class 0

Each molecule tested received a call. Report the one for `CC(C)=CCC/C(C)=C/CC/C(C)=C/CC/C=C(\C)CC/C=C(\C)CCC=C(C)C` . class 0

Each molecule tested received a call. Report the one for `O=c1[nH]c(=O)n([C@H]2C[C@H](O)[C@@H](CO)O2)cc1/C=C/Br` . class 0

Each molecule tested received a call. Report the one for `c1ccc2occc2c1` . class 0

Each molecule tested received a call. Report the one for `COc1ccc([C@@H]2CC(=O)c3c(O)cc(O[C@@H]4O[C@H](CO[C@@H]5O[C@@H](C)[C@H](O)[C@@H](O)[C@H]5O)[C@@H](O)[C@H](O)[C@H]4O)cc3O2)cc1O` . class 0

Each molecule tested received a call. Report the one for `C=C1[C@@H]2CC[C@@H](C2)C1(C)C` . class 0

Each molecule tested received a call. Report the one for `CCOc1cc(CC(=O)N[C@@H](CC(C)C)c2ccccc2N2CCCCC2)ccc1C(=O)O` . class 0

Each molecule tested received a call. Report the one for `O=C1c2ccccc2CN2C(=O)c3ccccc3CN12` . class 0
